molecular target: Recombinant human GSK3β (Homo sapiens, UniProt P49841); construct: His-tag; made in house; host or cells: Sf9 insect cells / baculovirus; test: GSK-3β (Glycogen Synthase Kinase) cell free enzyme assay; format: biochemical; conditions: cell free enzyme assay; Examples 265-291
Sequence (P49841 whole entry): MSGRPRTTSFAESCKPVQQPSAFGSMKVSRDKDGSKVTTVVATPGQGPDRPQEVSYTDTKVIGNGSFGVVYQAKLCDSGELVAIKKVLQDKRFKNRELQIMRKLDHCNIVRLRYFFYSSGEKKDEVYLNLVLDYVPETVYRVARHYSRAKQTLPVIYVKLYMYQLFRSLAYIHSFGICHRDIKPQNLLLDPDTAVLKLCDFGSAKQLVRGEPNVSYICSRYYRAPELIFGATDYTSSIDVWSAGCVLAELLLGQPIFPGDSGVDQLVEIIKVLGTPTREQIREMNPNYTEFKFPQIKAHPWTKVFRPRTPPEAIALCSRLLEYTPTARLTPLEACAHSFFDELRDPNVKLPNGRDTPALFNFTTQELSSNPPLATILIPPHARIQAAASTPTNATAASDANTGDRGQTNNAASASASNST
pIC50: −log10 of the molar value.
# pIC50 >= 8 gives criterion met, anything below gives criterion not met

Entry CN(c1nc(-c2ccncc2F)cc(=O)n1C)[C@H]1[C@@H]2CN(c3nc4cc(F)ccc4[nH]3)C[C@@H]21 : is its pIC50 no less than 8?
criterion not met

Also need CN(c1nc(-c2ccncc2F)cc(=O)n1C)[C@H]1[C@@H]2CN(c3nc4ccccc4[nH]3)C[C@@H]21 , thanks.
criterion not met

Same again, this time with COc1ccc2nc(N3C[C@@H]4[C@H](C3)[C@H]4N(C)c3nc(-c4ccncc4F)cc(=O)n3C)sc2c1
criterion not met

Can you check CN(c1nc(-c2ccncc2F)cc(=O)n1C)[C@H]1[C@@H]2CN(c3nnnn3C)C[C@@H]21 next?
criterion not met

Moving on to the next compound: CCOc1cccc(-n2nnnc2N2C[C@@H]3[C@H](C2)[C@H]3N(C)c2nc(-c3ccncc3F)cc(=O)n2C)c1
criterion met

----------
molecular target: Recombinant human GSK3β (Homo sapiens); construct: His-tag; made in house; host or cells: Sf9 insect cells / baculovirus; test: GSK-3β (Glycogen Synthase Kinase) cell free enzyme assay; format: biochemical; conditions: cell free enzyme assay; Examples 1-35
parameter measured: IC50 (nM)
Numbers only; they are read as nM.

>>> recorded_value("Cn1c(NC[C@H]2CCN(C(=O)OC(C)(C)C)C2)nc(-c2ccncc2)cc1=O")
74
>>> recorded_value("COc1cccc2c1CC[C@@H](Nc1nc(-c3ccncc3)cc(=O)n1C)[C@H]2C")
3.9

Consider the compound Cn1c(NCCn2c(=O)ccc3ccccc32)nc(-c2ccncc2)cc1=O and give its measured IC50.
25

Here is the next compound: CN(c1nc(-c2ccncc2)cc(=O)n1C)C1CCN(C(=O)OC(C)(C)C)C1 (centres unmarked)
17.7

And then Cn1c(NC2(c3cccc(C(C)(C)C)c3)CCOCC2)nc(-c2ccncc2)cc1=O , what is it?
12

Further, for Cn1c(N[C@@H]2CC[C@@H](NC(=O)OC(C)(C)C)C2)nc(-c2ccncc2)cc1=O ?
52.5

Consider next the compound CC1c2cccn2CCN1c1nc(-c2ccncc2)cc(=O)n1C (centres unmarked) in the same way.
10.7

Param item: CN(c1nc(-c2ccncc2)cc(=O)n1C)[C@@H]1CC[C@H]2N(C(=O)OC(C)(C)C)CC[C@@]2(C)C1
30.1

----------
The compounds listed here are annotated with their pIC50.
biological target: Recombinant human GSK3β (Homo sapiens, UniProt P49841); construct: His-tag; made in house; host or cells: Sf9 insect cells / baculovirus; assay: GSK-3β (Glycogen Synthase Kinase) cell free enzyme assay; type: biochemical; settings: cell free enzyme assay; Examples 62-155
The scale used: pIC50 is minus the common logarithm of the concentration in molar units.

>>> recorded_value("CN(c1nc(-c2ccncc2)cc(=O)n1C)C1CCN(C(=O)Cc2ccccc2)C1 (stereo not shown)")
6.88

Please give the measured pIC50 for this compound: Cc1c(C(=O)N2C[C@@H]3[C@H](C2)[C@H]3N(C)c2nc(-c3ccncc3F)cc(=O)n2C)cnn1-c1ccccc1
6.99

Now consider Cn1c(NC2CCCN(C(=O)c3ccccc3)C2)nc(-c2ccncc2)cc1=O (stereo not shown) and answer again.
6.00

Item: CN(c1nc(-c2ccncc2F)cc(=O)n1C)[C@H]1[C@@H]2CN(C(=O)c3ccccc3)C[C@@H]21
8.82
